systemTested: hNaV1.2 (Homo sapiens, UniProt Q99250)
Sequence (Q99250 whole entry): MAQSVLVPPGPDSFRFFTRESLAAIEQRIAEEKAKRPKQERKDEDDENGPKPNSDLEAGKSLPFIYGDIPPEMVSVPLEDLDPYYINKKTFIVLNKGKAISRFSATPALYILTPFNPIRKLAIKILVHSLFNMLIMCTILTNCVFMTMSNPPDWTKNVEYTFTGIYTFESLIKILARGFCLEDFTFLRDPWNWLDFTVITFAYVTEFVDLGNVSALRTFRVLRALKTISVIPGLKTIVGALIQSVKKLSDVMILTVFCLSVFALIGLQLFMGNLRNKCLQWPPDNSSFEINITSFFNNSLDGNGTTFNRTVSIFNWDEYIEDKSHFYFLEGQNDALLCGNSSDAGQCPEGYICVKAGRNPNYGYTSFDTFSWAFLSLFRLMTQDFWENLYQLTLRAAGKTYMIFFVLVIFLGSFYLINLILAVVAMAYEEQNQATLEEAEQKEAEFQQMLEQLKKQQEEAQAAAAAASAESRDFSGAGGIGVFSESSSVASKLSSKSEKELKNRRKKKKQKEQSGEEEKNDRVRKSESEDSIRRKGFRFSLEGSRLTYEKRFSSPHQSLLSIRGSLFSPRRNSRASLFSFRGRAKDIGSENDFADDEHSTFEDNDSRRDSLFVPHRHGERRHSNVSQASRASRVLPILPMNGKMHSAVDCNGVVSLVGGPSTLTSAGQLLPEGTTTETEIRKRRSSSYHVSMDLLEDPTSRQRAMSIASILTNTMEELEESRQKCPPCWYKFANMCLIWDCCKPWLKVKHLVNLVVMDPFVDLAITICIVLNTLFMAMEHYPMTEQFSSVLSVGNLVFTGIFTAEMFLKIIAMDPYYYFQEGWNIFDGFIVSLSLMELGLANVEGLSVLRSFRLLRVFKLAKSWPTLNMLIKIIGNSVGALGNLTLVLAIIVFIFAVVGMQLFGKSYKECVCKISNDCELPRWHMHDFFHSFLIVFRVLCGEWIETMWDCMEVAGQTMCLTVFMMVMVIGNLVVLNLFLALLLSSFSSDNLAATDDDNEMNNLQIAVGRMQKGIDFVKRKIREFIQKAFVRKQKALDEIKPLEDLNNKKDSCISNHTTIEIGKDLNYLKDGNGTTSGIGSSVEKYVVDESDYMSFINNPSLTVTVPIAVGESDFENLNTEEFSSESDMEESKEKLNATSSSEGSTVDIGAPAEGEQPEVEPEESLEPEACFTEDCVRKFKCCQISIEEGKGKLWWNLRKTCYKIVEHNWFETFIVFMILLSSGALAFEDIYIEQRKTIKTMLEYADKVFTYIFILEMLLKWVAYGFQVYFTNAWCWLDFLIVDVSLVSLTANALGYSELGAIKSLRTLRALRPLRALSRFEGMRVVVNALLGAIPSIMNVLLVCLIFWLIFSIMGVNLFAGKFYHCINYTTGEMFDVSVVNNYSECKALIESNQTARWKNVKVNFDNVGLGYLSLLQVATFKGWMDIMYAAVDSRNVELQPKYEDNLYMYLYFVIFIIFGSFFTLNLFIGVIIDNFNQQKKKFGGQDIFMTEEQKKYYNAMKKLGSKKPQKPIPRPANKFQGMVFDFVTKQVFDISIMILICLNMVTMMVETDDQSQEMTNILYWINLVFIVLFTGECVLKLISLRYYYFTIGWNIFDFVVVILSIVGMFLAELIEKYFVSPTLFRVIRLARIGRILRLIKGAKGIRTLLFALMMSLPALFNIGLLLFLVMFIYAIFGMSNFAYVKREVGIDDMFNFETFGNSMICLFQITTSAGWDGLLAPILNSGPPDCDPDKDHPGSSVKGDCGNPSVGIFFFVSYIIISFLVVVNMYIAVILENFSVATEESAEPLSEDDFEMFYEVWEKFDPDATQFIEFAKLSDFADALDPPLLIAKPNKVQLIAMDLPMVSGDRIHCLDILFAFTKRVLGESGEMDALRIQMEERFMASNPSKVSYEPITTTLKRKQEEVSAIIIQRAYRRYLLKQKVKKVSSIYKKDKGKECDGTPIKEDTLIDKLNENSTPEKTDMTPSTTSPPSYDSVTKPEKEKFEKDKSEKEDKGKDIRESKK
runDescription: Persistent INa, patch clamp
Format: cell-based
metric: IC50 (µM)
Hi! Could you send only the number? It should be in µM, unit omitted.

The reported value for CCOC(F)(F)c1nnc2cnc(-c3cnc(OCC(F)(F)F)c(F)c3)cn12 in terms of IC50 is 0.172

* * *

# Lookup of reported log10 IC50 keyed by entry
systemTested: human NaV1.6 (Homo sapiens, UniProt Q9UQD0)
Construct: stably expressing either human NaV1.6 (NP_055006); expressed in transfected cells
Sequence (Q9UQD0 whole entry): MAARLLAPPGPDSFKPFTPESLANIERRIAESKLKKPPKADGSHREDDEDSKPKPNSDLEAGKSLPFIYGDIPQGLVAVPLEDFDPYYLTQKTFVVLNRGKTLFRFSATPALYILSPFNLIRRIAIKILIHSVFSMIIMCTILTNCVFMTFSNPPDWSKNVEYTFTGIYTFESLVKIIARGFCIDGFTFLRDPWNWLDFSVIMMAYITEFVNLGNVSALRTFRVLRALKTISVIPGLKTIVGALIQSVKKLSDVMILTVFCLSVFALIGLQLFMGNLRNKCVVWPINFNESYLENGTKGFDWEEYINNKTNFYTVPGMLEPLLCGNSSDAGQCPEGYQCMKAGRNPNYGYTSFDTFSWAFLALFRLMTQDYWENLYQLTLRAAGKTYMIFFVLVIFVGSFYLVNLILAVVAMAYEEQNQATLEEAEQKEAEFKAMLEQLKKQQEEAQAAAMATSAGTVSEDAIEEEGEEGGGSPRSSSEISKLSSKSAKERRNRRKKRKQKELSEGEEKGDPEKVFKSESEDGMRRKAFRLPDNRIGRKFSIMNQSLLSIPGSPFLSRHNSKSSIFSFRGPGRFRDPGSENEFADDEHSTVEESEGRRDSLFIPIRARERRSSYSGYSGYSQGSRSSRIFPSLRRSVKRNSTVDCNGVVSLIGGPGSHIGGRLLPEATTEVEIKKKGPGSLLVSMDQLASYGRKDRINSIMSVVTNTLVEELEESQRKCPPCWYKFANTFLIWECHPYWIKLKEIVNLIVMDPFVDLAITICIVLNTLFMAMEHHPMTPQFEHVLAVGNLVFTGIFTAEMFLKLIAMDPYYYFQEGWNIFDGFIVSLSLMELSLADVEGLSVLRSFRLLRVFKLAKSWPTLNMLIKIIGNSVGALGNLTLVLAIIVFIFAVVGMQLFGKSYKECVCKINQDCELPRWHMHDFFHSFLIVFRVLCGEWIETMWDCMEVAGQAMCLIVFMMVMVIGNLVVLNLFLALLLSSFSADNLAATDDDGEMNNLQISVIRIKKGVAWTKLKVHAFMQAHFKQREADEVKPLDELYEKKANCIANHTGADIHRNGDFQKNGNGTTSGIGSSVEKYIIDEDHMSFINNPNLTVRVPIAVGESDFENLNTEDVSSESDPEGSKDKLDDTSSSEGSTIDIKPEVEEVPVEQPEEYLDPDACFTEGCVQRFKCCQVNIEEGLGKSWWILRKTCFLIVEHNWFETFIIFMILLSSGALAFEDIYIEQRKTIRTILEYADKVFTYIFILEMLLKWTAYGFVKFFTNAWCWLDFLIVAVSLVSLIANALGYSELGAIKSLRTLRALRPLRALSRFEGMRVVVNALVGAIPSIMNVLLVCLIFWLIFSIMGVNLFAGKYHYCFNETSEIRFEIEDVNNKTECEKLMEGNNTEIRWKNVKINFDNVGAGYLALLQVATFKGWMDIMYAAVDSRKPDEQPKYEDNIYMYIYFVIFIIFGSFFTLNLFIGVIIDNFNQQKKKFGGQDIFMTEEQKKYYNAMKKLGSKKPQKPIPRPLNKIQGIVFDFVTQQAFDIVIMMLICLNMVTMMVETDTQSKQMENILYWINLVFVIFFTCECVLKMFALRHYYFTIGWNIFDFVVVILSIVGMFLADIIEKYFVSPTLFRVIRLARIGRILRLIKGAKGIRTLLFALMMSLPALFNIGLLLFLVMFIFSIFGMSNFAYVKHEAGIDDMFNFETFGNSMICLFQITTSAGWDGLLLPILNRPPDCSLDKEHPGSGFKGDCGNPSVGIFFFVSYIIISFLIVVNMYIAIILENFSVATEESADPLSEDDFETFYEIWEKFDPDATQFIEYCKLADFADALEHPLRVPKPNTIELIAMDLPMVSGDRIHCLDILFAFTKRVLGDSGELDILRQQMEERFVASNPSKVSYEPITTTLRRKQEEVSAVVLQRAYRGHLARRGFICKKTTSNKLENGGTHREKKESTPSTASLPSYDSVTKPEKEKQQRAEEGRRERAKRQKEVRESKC
runDescription: Peak INa voltage-dependent block (VDB), PatchXpress patch clamp
Format: cell-based
conditionParameters: hNaV1.6, half-inactivated (V1/2)
Description: HEK-293 cell lines stably expressing either human NaV1.6 (NP_055006), mouse NaV1.6 (NP_035453.2), or rat NaV1.6 (NP_062139) were used. All cells were seeded at 2×10^6 cells per Nunc T75 flask for 2 days in culture. […] The same intracellular recording solution was used for the persistent and peak INa assays, which contained: 135 mM CsF, 10 mM CsCl, 5 mM NaCl, 10 mM HEPES, 5 mM EGTA at a pH of 7.4 (adjusted with CsOH) and a measured osmolarity of 298 mOsm (adjusted with mannitol). […]
Heads up, the numbers here are log10 of IC50 in µM units.

COC[C@@H](NC(C)=O)C(=O)NCc1ccccc1 [Lacosamide]: 2.43
CCOC(F)(F)c1nnc2cnc(-c3cnc(OCC(F)(F)F)c(F)c3)cn12: -0.50
O=C1NC(=O)C(c2ccccc2)(c2ccccc2)N1: 1.68

Entry NC(=O)N1c2ccccc2C=Cc2ccccc21 [Carbamazepine, reference compound] ; assay system human NaV1.6 (Homo sapiens, UniProt Q9UQD0); log10 IC50 recorded at 1.65

Entry NC(=O)O[C@@H](Cn1ncnn1)c1ccccc1Cl [Cenobamate] ; assay system human NaV1.6 (Homo sapiens, UniProt Q9UQD0); log10 IC50 recorded at 1.82

Entry NC(=O)N1c2ccccc2CC(=O)c2ccccc21 [Oxcarbazepine] ; assay system human NaV1.6 (Homo sapiens, UniProt Q9UQD0); log10 IC50 recorded at 1.62

* * *

systemTested: human NaV1.6 (Homo sapiens)
Construct: stably expressing either human NaV1.6 (NP_055006); expressed in transfected cells
runDescription: Peak INa voltage-dependent block (VDB), PatchXpress patch clamp
Assay type: cell-based
conditionParameters: hNaV1.6
metric: Ratio to Pers. INa (Peak INa VDB / persistent INa)
Just the number.

Worked cases, answers included:
CCOC(F)(F)c1nnc2cnc(-c3cnc(OCC(F)(F)F)c(F)c3)cn12: 2.2
NC(=O)N1c2ccccc2CC(=O)c2ccccc21 [Oxcarbazepine]: 0.3
NC(=O)O[C@@H](Cn1ncnn1)c1ccccc1Cl [Cenobamate]: 0.9
COC[C@@H](NC(C)=O)C(=O)NCc1ccccc1 [Lacosamide]: 0.3

Could you now consider this next molecule?
The reported value for O=C1NC(=O)C(c2ccccc2)(c2ccccc2)N1 in terms of Ratio to Pers. INa (Peak INa VDB / persistent INa) is 0.8

* * *

systemTested: human NaV1.6 (Homo sapiens, UniProt Q9UQD0)
Construct: stably expressing either human NaV1.6 (NP_055006); expressed in transfected cells
runDescription: Peak INa tonic block (TB), PatchXpress patch clamp
Type: cell-based
conditionParameters: hNaV1.6, 0.1 Hz, resting state
metric: pIC50
Reminder that pIC50 means the negative base-10 logarithm of the concentration expressed in mol/L.

The reported value for CCOC(F)(F)c1nnc2cnc(-c3cnc(OCC(F)(F)F)c(F)c3)cn12 [Compound 1] in terms of pIC50 is 5.07

The reported value for NC(=O)O[C@@H](Cn1ncnn1)c1ccccc1Cl [Cenobamate] in terms of pIC50 is 2.76

The reported value for NC(=O)N1c2ccccc2CC(=O)c2ccccc21 [Oxcarbazepine] in terms of pIC50 is 2.99

The reported value for NC(=O)N1c2ccccc2C=Cc2ccccc21 [Carbamazepine, reference compound] in terms of pIC50 is 2.64

* * *

systemTested: human NaV1.6 (Homo sapiens, UniProt Q9UQD0)
Construct: stably expressing either human NaV1.6 (NP_055006); expressed in transfected cells
runDescription: Peak INa use-dependent block (UDB-10 Hz), PatchXpress patch clamp
Format: cell-based
conditionParameters: hNaV1.6
# Lookup of reported Ratio to Pers. INa (Peak INa UDB-10 Hz / persistent INa) keyed by entry

Worked cases, answers included:
O=C1NC(=O)C(c2ccccc2)(c2ccccc2)N1: 15
CCOC(F)(F)c1nnc2cnc(-c3cnc(OCC(F)(F)F)c(F)c3)cn12: 2
COC[C@@H](NC(C)=O)C(=O)NCc1ccccc1 [Lacosamide]: 0.8

The reported value for NC(=O)O[C@@H](Cn1ncnn1)c1ccccc1Cl [Cenobamate] in terms of Ratio to Pers. INa (Peak INa UDB-10 Hz / persistent INa) is 11

* * *

# Lookup of reported pIC50 keyed by entry
systemTested: human NaV1.6 (Homo sapiens, UniProt Q9UQD0)
Construct: stably expressing either human NaV1.6 (NP_055006); expressed in transfected cells
runDescription: ATX-II activated late (persistent) INa block, PatchXpress patch clamp
Assay type: cell-based
conditionParameters: hNaV1.6, ATX-II-evoked, holding −120 mV
Reminder that pIC50 means the negative base-10 logarithm of the concentration expressed in mol/L.

The reported value for NC(=O)N1c2ccccc2CC(=O)c2ccccc21 [Oxcarbazepine] in terms of pIC50 is 3.91

The reported value for CCOC(F)(F)c1nnc2cnc(-c3cnc(OCC(F)(F)F)c(F)c3)cn12 in terms of pIC50 is 6.85

The reported value for O=C1NC(=O)C(c2ccccc2)(c2ccccc2)N1 in terms of pIC50 is 4.22

The reported value for NC(=O)O[C@@H](Cn1ncnn1)c1ccccc1Cl [Cenobamate] in terms of pIC50 is 4.14

The reported value for NC(=O)N1c2ccccc2C=Cc2ccccc21 [Carbamazepine, reference compound] in terms of pIC50 is 4.11

The reported value for COC[C@@H](NC(C)=O)C(=O)NCc1ccccc1 [Lacosamide] in terms of pIC50 is 3.08

* * *

systemTested: hNaV1.2 (Homo sapiens, UniProt Q99250)
runDescription: Peak INa tonic block, patch clamp
Type: cell-based
metric: pIC50
Reminder that pIC50 means the negative base-10 logarithm of the concentration expressed in mol/L.

The reported value for CCOC(F)(F)c1nnc2cnc(-c3cnc(OCC(F)(F)F)c(F)c3)cn12 in terms of pIC50 is 4.86

* * *

systemTested: hNaV1.1 (Homo sapiens, UniProt P35498)
runDescription: Peak INa tonic block, patch clamp
Format: cell-based
Protocol: Tonic Block (TB): Tonic Block (TB) protocols used low stimulation rates (about 0.1 Hz) and negative potentials (−120 mV) to keep channels in closed (resting) states. Pharmacology was measured during peak INa in response to step to 0 mV. No leak subtraction was used.
metric: pIC50
Reminder that pIC50 means the negative base-10 logarithm of the concentration expressed in mol/L.

The reported value for CCOC(F)(F)c1nnc2cnc(-c3cnc(OCC(F)(F)F)c(F)c3)cn12 in terms of pIC50 is 4.72

* * *

systemTested: human NaV1.6 (Homo sapiens, UniProt Q9UQD0)
Construct: stably expressing either human NaV1.6 (NP_055006); expressed in transfected cells
runDescription: Peak INa use-dependent block (UDB-10 Hz), PatchXpress patch clamp
Type: cell-based
conditionParameters: hNaV1.6, 10 Hz
metric: pIC50
Reminder that pIC50 means the negative base-10 logarithm of the concentration expressed in mol/L.

NC(=O)O[C@@H](Cn1ncnn1)c1ccccc1Cl [Cenobamate]: 3.13
COC[C@@H](NC(C)=O)C(=O)NCc1ccccc1 [Lacosamide]: 3.17
NC(=O)N1c2ccccc2C=Cc2ccccc21 [Carbamazepine, reference compound]: 2.85
CCOC(F)(F)c1nnc2cnc(-c3cnc(OCC(F)(F)F)c(F)c3)cn12 [Compound 1]: 6.57

Could you now consider this next molecule?
The reported value for O=C1NC(=O)C(c2ccccc2)(c2ccccc2)N1 [Phenytoin] in terms of pIC50 is 3.06

* * *

systemTested: hNaV1.6-N1768D (Homo sapiens, UniProt Q9UQD0, N1768D)
Sequence (Q9UQD0 whole entry N1768D): as the sequence (Q9UQD0 whole entry) above, with N1768D counted along it
runDescription: Persistent INa expressed by DEE mutant channel, patch clamp
conditionParameters: hNaV1.6-N1768D DEE mutant
metric: IC50 (µM)
Hi! Could you send only the number? It should be in µM, unit omitted.

Entry CCOC(F)(F)c1nnc2cnc(-c3cnc(OCC(F)(F)F)c(F)c3)cn12 ; assay system hNaV1.6-N1768D (Homo sapiens, UniProt Q9UQD0, N1768D); IC50 recorded at 0.075
